Tested on: IGROV1 ovarian
Assay: NCI-60 one-dose screen, 48 h (100 = growth as untreated, 0 = no growth, -100 = all killed)
Conditions: 10 µM unless noted
Description: Growth inhibition of the IGROV1 human tumor cell line is measured as a screen for anti-cancer activity. Cells are grown in 96 well plates and exposed to the test compound for 48 hours. Compounds are tested at a single concentration, which is 10^-5 M for most compounds. The reported endpoint is percent growth (GI% or GIPRCNT), where numbers from 0 - 100% represent growth inhibition, and numbers from -100% - 0 represent cell death. For example, a value of 40 represents 60% growth inhibition. […]
The panel holds about 83,000 compounds, 20% with a hit somewhere; the sample as a whole holds those more often.
Label t when growth is at or above 90%; otherwise label f.

Illustrative cases are given below, each with its answer.
>>> class_label("C=CCSSC1N=CNc2nc[nH]c21 (stereo unspecified)")
"f"
>>> class_label("CC(C)CSc1nc(N)nc2c1ncn2C1OC(CO)C(O)C1O (stereo unspecified)")
"t"
>>> class_label("NNCCc1ccc(NC(=O)CCCc2ccc(/C=C/C(=O)NO)cc2)cc1")
"f"
>>> class_label("COc1ccc(C(=O)/C=C/c2cccnc2Nc2cc(OC)c(OC)c(OC)c2)cc1")
"f"

Field: next compound
Q) Is reported growth greater than or equal to 90% here: COc1ccc(-c2cc(=O)c3c(OC)c4ccoc4cc3o2)cc1
A) t
